Data credit: patent US10238713B2

test system: human PBMC; experiment: Toxicity test: PBMC survival in 24 h culture (MTT); conditions: 10 μg/ml, ANOVA, FIGS. 8A-8F (4B8M repeated per figure)
Non-standard residues stand in square brackets, D forms with d. Residues, ends and D or L forms follow the SMILES beside them. *: point of attachment. Bip = N[C@@H](Cc1ccc(-c2ccccc2)cc1)C(=O)O; Oic = O=C(O)[C@@H]1C[C@@H]2CCCC[C@@H]2N1; Phe(4-Cl) = N[C@@H](Cc1ccc(Cl)cc1)C(=O)O; β3hW = N[C@H](CC(=O)O)Cc1c[nH]c2ccccc12; Phe(4-F) = N[C@@H](Cc1ccc(F)cc1)C(=O)O; Phe(4-I) = N[C@@H](Cc1ccc(I)cc1)C(=O)O; Phe(4-Me) = Cc1ccc(C[C@H](N)C(=O)O)cc1; 2Nal = N[C@@H](Cc1ccc2ccccc2c1)C(=O)O; β3hY = N[C@H](CC(=O)O)Cc1ccc(O)cc1; Hyp = O=C(O)[C@@H]1C[C@@H](O)CN1; hPhe = N[C@@H](CCc1ccccc1)C(=O)O; 3Pal = N[C@@H](Cc1cccnc1)C(=O)O; Tic = O=C(O)[C@@H]1Cc2ccccc2CN1; β3hF = N[C@H](CC(=O)O)Cc1ccccc1; ΔPro = O=C(O)[C@@H]1C=CCN1; tBu = CC(C)(C)*
Recorded measurements of PBMC survival, P vs DMSO at appropriate dilution, one per entry
Measured Quantity: PBMC survival, P vs DMSO at appropriate dilution

[[record]]
compound = "O=C1C[C@H](Cc2ccccc2)NC(=O)[C@@H]2CCCN2C(=O)[C@@H]2C[C@@H](O)CN2C(=O)[C@H](Cc2ccccc2)N1 [I-R] (cyclo(F[Hyp]P[β3hF]))"
number = 0.6250

[[record]]
compound = "O=C1N[C@@H](Cc2ccccc2)CC(=O)N2Cc3ccccc3C[C@H]2C(=O)N2CCC[C@H]2C(=O)N2CCC[C@@H]12 [I-AA] (cyclo(PP[β3hF][Tic]))"
number = 0.9997

[[record]]
compound = "O=C1C[C@H](Cc2ccccc2)NC(=O)[C@@H]2CCCN2C(=O)[C@@H]2CCCN2C(=O)[C@H](Cc2ccc(F)cc2)N1 [I-X] (cyclo(PP[β3hF][Phe(4-F)]))"
number = 0.8597

[[record]]
compound = "O=C1C[C@H](Cc2ccccc2)NC(=O)[C@@H]2CCCN2C(=O)[C@@H]2C[C@@H]3CCCC[C@@H]3N2C(=O)[C@H](Cc2ccccc2)N1 [I-AD] (cyclo(F[Oic]P[β3hF]))"
number = 1.0000

[[record]]
compound = "CC(C)(C)OC[C@@H]1NC(=O)[C@H](Cc2ccccc2)NC(=O)C[C@H](Cc2ccccc2)NC(=O)[C@@H]2CCCN2C1=O [I-AL] (cyclo(FS(tBu)P[β3hF]))"
number = 1.0000

[[record]]
compound = "O=C1C[C@H](Cc2ccccc2)NC(=O)[C@@H]2CCCN2C(=O)[C@@H]2CCCN2C(=O)[C@H](Cc2ccc(I)cc2)N1 [I-W] (cyclo(PP[β3hF][Phe(4-I)]))"
number = 0.9992

[[record]]
compound = "Cc1ccc(C[C@@H]2NC(=O)C[C@H](Cc3ccccc3)NC(=O)[C@@H]3CCCN3C(=O)[C@@H]3CCCN3C2=O)cc1 [I-Z] (cyclo(PP[β3hF][Phe(4-Me)]))"
number = 0.9997

[[record]]
compound = "O=C1C[C@H](Cc2ccccc2)NC(=O)[C@@H]2CCCN2C(=O)[C@@H]2CCCN2C(=O)[C@H](Cc2c[nH]c3ccccc23)N1 [I-L] (cyclo(PP[β3hF]W))"
number = 1.0000

[[record]]
compound = "O=C1C[C@H](Cc2c[nH]c3ccccc23)NC(=O)[C@@H]2CCCN2C(=O)[C@@H]2CCCN2C(=O)[C@H](Cc2ccccc2)N1 [I-AE] (cyclo(FPP[β3hW]))"
number = 0.9954

[[record]]
compound = "O=C1C[C@H](Cc2ccccc2)NC(=O)[C@@H]2CCCN2C(=O)[C@@H]2CCCN2C(=O)[C@H](Cc2ccc3ccccc3c2)N1 [I-U] (cyclo([2Nal]PP[β3hF]))"
number = 0.9972

[[record]]
compound = "O=C1C[C@H](Cc2ccccc2)NC(=O)[C@@H]2CCCN2C(=O)[C@@H]2C=CCN2C(=O)[C@H](Cc2ccccc2)N1 [I-S] (cyclo(F[ΔPro]P[β3hF]))"
number = 0.9753

[[record]]
compound = "O=C1C[C@H](Cc2ccccc2)NC(=O)[C@@H]2CCCN2C(=O)[C@@H]2CCCN2C(=O)[C@H](CCc2ccccc2)N1 [I-AI] (cyclo(PP[β3hF][hPhe]))"
number = 0.0222

[[record]]
compound = "O=C1C[C@H](Cc2ccccc2)NC(=O)[C@@H]2Cc3ccccc3CN2C(=O)[C@@H]2CCCN2C(=O)[C@H](Cc2ccccc2)N1 [I-AB] (cyclo(FP[Tic][β3hF]))"
number = 0.8876

[[record]]
compound = "O=C1C[C@H](Cc2ccccc2)NC(=O)[C@@H]2CCCN2C(=O)[C@@H]2CCCN2C(=O)[C@H](Cc2cccnc2)N1 [I-AC] (cyclo([3Pal]PP[β3hF]))"
number = 0.8178

[[record]]
compound = "CC(C)(C)Oc1ccc(C[C@@H]2NC(=O)C[C@H](Cc3ccccc3)NC(=O)[C@@H]3CCCN3C(=O)[C@@H]3CCCN3C2=O)cc1 [I-N] (cyclo(PP[β3hF]Y(tBu)))"
number = 1.0000

[[record]]
compound = "O=C1C[C@H](Cc2ccccc2)NC(=O)[C@@H]2C[C@@H]3CCCC[C@@H]3N2C(=O)[C@@H]2CCCN2C(=O)[C@H](Cc2ccccc2)N1 [I-Y] (cyclo(FP[Oic][β3hF]))"
number = 0.9992

[[record]]
compound = "O=C1C[C@H](Cc2ccccc2)NC(=O)[C@@H]2CCCN2C(=O)[C@@H]2CCCN2C(=O)[C@H](Cc2ccc(Cl)cc2)N1 [I-V] (cyclo(PP[β3hF][Phe(4-Cl)]))"
number = 0.9999

[[record]]
compound = "CC(C)(C)Oc1ccc(C[C@H]2CC(=O)N[C@@H](Cc3ccccc3)C(=O)N3CCC[C@H]3C(=O)N3CCC[C@H]3C(=O)N2)cc1"
number = 1.0000

[[record]]
compound = "CC(C)(C)OC[C@@H]1NC(=O)[C@@H]2CCCN2C(=O)[C@H](Cc2ccccc2)NC(=O)C[C@H](Cc2ccccc2)NC1=O [I-AJ] (cyclo(FPS(tBu)[β3hF]))"
number = 0.9962

[[record]]
compound = "O=C1C[C@H](Cc2ccccc2)NC(=O)[C@@H]2CCCN2C(=O)[C@@H]2CCCN2C(=O)[C@H](Cc2ccc(-c3ccccc3)cc2)N1 [I-AH] (cyclo([Bip]PP[β3hF]))"
number = 0.0005

[[record]]
compound = "O=C1C[C@H](Cc2ccc(O)cc2)NC(=O)[C@@H]2CCCN2C(=O)[C@@H]2CCCN2C(=O)[C@H](Cc2ccccc2)N1 [I-AG] (cyclo(FPP[β3hY]))"
number = 0.0001


----------
tested on: human PBMC; experiment: Toxicity test: PBMC survival in 24 h culture (MTT); details: 100 μg/ml, ANOVA, FIGS. 8A-8F (4B8M repeated per figure)
Non-standard residues stand in square brackets, D forms with d. Residues, ends and D or L forms follow the SMILES beside them. *: point of attachment. Oic = O=C(O)[C@@H]1C[C@@H]2CCCC[C@@H]2N1; Phe(4-Cl) = N[C@@H](Cc1ccc(Cl)cc1)C(=O)O; Phe(4-F) = N[C@@H](Cc1ccc(F)cc1)C(=O)O; 2Nal = N[C@@H](Cc1ccc2ccccc2c1)C(=O)O; β3hY = N[C@H](CC(=O)O)Cc1ccc(O)cc1; hPhe = N[C@@H](CCc1ccccc1)C(=O)O; 3Pal = N[C@@H](Cc1cccnc1)C(=O)O; β3hF = N[C@H](CC(=O)O)Cc1ccccc1; tBu = CC(C)(C)*
Measured Quantity: PBMC survival, P vs DMSO at appropriate dilution

[[record]]
molecule = "O=C1C[C@H](Cc2ccccc2)NC(=O)[C@@H]2CCCN2C(=O)[C@@H]2CCCN2C(=O)[C@H](Cc2cccnc2)N1 [I-AC] (cyclo([3Pal]PP[β3hF]))"
number = 0.9882

[[record]]
molecule = "O=C1C[C@H](Cc2ccc(O)cc2)NC(=O)[C@@H]2CCCN2C(=O)[C@@H]2CCCN2C(=O)[C@H](Cc2ccccc2)N1 [I-AG] (cyclo(FPP[β3hY]))"
number = 0.0001

[[record]]
molecule = "O=C1C[C@H](Cc2ccccc2)NC(=O)[C@@H]2CCCN2C(=O)[C@@H]2CCCN2C(=O)[C@H](Cc2ccc3ccccc3c2)N1 [I-U] (cyclo([2Nal]PP[β3hF]))"
number = 0.4949

[[record]]
molecule = "O=C1C[C@H](Cc2ccccc2)NC(=O)[C@@H]2CCCN2C(=O)[C@@H]2CCCN2C(=O)[C@H](Cc2ccc(F)cc2)N1 [I-X] (cyclo(PP[β3hF][Phe(4-F)]))"
number = 0.0001

[[record]]
molecule = "O=C1C[C@H](Cc2ccccc2)NC(=O)[C@@H]2CCCN2C(=O)[C@@H]2CCCN2C(=O)[C@H](CCc2ccccc2)N1 [I-AI] (cyclo(PP[β3hF][hPhe]))"
number = 1.0000

[[record]]
molecule = "O=C1C[C@H](Cc2ccccc2)NC(=O)[C@@H]2CCCN2C(=O)[C@@H]2CCCN2C(=O)[C@H](Cc2ccc(Cl)cc2)N1 [I-V] (cyclo(PP[β3hF][Phe(4-Cl)]))"
number = 0.1122

[[record]]
molecule = "O=C1C[C@H](Cc2ccccc2)NC(=O)[C@@H]2CCCN2C(=O)[C@@H]2C[C@@H]3CCCC[C@@H]3N2C(=O)[C@H](Cc2ccccc2)N1 [I-AD] (cyclo(F[Oic]P[β3hF]))"
number = 0.9531

[[record]]
molecule = "CC(C)(C)OC[C@@H]1NC(=O)[C@H](Cc2ccccc2)NC(=O)C[C@H](Cc2ccccc2)NC(=O)[C@@H]2CCCN2C1=O [I-AL] (cyclo(FS(tBu)P[β3hF]))"
number = 0.0466

[[record]]
molecule = "O=C1C[C@H](Cc2ccccc2)NC(=O)[C@@H]2C[C@@H]3CCCC[C@@H]3N2C(=O)[C@@H]2CCCN2C(=O)[C@H](Cc2ccccc2)N1 [I-Y] (cyclo(FP[Oic][β3hF]))"
number = 0.0001

